Cited source: ChEMBL document CHEMBL5154891

test: Lipophilicity, log D of the compound at pH 7.4; settings: buffer, pH 7.4, logD
# maps each entry to its logD
No unit in the answer, only the number.

# input Return logD (reported value) for this compound: C=CC(=O)N1C[C@@H]2CCOc3c(Cl)c(-c4c(O)cccc4F)c(F)c4ncnc(c34)N2C[C@H]1C
# output 3.2

* * *

biological target: Ribosomal protein S6 kinase alpha-1 (Homo sapiens, UniProt Q15418, G12C); experiment: Inhibition of p90RSK phosphorylation in human NCI-H358 cells harboring KRAS G12C mutant measured for 2 hrs by immunofluorescence assay
Sequence (Q15418 whole entry, looked up, stated change not applied): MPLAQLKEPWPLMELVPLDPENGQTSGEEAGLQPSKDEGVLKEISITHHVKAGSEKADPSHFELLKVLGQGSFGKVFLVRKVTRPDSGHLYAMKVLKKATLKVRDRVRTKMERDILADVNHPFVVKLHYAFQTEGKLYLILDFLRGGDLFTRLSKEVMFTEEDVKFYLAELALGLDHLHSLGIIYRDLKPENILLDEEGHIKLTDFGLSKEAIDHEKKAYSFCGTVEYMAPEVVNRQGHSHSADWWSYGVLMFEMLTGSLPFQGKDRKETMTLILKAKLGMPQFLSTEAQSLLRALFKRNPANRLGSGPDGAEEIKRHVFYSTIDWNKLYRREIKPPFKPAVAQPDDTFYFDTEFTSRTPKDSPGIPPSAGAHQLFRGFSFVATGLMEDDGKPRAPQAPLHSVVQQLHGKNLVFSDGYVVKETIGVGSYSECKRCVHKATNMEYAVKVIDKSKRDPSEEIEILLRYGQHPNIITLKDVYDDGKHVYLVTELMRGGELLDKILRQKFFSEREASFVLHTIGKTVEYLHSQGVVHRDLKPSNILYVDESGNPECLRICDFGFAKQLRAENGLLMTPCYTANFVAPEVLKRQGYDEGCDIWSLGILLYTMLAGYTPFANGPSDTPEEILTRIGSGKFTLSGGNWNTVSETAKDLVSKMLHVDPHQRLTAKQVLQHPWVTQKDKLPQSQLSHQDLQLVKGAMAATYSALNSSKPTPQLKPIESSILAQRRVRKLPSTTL
Measured Property: IC50 (nM)
Your answer is read as nM, so omit the unit and give the number.

# input Return IC50 (reported value) for this compound: C=CC(=O)N1C[C@@H]2CCOc3c(Cl)c(-c4c(O)cccc4F)c(F)c4ncnc(c34)N2C[C@H]1C
# output 36

* * *

experiment: in vitro; details: human, liver microsomes, CLH
Description: Metabolic stability in human liver microsomes assessed as intrinsic clearance at 5 uM preincubated with NADPH for 5 mins followed by compound addition and measured after 60 mins by UHPLC/UV/MS/MS analysis
# maps each entry to its microsomal CLint at 1 h, 5 µM

molecule="C=CC(=O)N1CCN2c3ncnc4cc(-c5c(C)ccc6[nH]ncc56)c(Cl)c(c34)OCC[C@@H]2C1 (single isomer, unassigned; atropisomer 1)" value="192 µL/min/mg"
molecule=C=CC(=O)N1C[C@@H]2CCOc3c(Cl)c(-c4c(O)cccc4F)c(F)c4ncnc(c34)N2C[C@H]1C value="28 µL/min/mg"
molecule="C=CC(=O)N1CCN2c3ncnc4cc(-c5c(C)ccc6[nH]ncc56)c(Cl)c(c34)OCC[C@H]2C1 (single isomer, unassigned; atropisomer 2)" value="189 µL/min/mg"
molecule="C=CC(=O)N1C[C@H]2COc3c(Cl)c(-c4c(O)cccc4F)c(F)c4ncnc(c34)N2C[C@H]1C (stereo in doubt; 30)" value="24 µL/min/mg"
molecule=C=CC(=O)N1C[C@H]2COc3c(Cl)c(-c4c(O)cccc4F)c(F)c4ncnc(c34)N2C[C@@H]1C value="110 µL/min/mg"

Turning now to a further molecule:
# input Return microsomal CLint at 1 h, 5 µM (reported value) for this molecule: C=CC(=O)N1CCN2c3ncnc4c(F)c(-c5c(O)cccc5F)c(Cl)c(c34)OCC[C@H]2C1
# output 66 µL/min/mg

* * *

assay: in vitro; conditions: human, liver microsomes, CLH
# maps each entry to its microsomal CLint at 1 h, 5 µM
Your answer is read as µL/min/mg, so omit the unit and give the number.

Past entries and their recorded results:
molecule=C=CC(=O)N1C[C@@H]2CCOc3c(Cl)c(-c4c(O)cccc4F)c(F)c4ncnc(c34)N2C[C@@H]1C value=203
molecule="C=CC(=O)N1CCN2c3ncnc4cc(-c5c(C)ccc6[nH]ncc56)c(Cl)c(c34)OC[C@@H]2C1 (atropisomer aS)" value=58
molecule=C=CC(=O)N1CCN2c3ncnc4c(F)c(-c5c(O)cccc5F)c(Cl)c(c34)OC[C@@H]2C1 value=13

Turning now to a further molecule:
# input Return microsomal CLint at 1 h, 5 µM (reported value) for this molecule: C=CC(=O)N1CCN(c2ncnc3cc(-c4c(C)ccc5[nH]ncc45)c(Cl)cc23)CC1
# output 38

* * *

test: Bioavailability in Han Wistar rat at 2 micromol/kg, po and 1 umol/kg, iv; type: ADME, organism-based; settings: Han Wistar, in vivo, 2 µmol/kg
# maps each entry to its bioavailability
Your answer is read as %, so omit the unit and give the number.

Past entries and their recorded results:
compound=C=CC(=O)N1C[C@@H]2CCOc3c(Cl)c(-c4c(O)cccc4F)c(F)c4ncnc(c34)N2C[C@H]1C measured_property=bioavailability value=75
compound="C=CC(=O)N1C[C@H]2COc3c(Cl)c(-c4c(O)cccc4F)c(F)c4ncnc(c34)N2C[C@H]1C (stereo in doubt; 30)" measured_property=bioavailability value=28

Turning now to a further compound:
# input Return bioavailability (reported value) for this compound: C=CC(=O)N1C[C@@H]2CCOc3c(Cl)c(-c4c(O)cccc4F)c(F)c4ncnc(c34)N2C[C@@H]1C
# output 51
